Cited source: patent US20110195911A1

Measured TGI (µM), MTT assay, MCF-7 cells values are reported for all entries that follow.
# Target Entity: Insulin-like growth factor 1 receptor (IGF1R) (UniProt P08069 31-1367, limits assumed)
# Sequence (P08069 31-1367 limits assumed): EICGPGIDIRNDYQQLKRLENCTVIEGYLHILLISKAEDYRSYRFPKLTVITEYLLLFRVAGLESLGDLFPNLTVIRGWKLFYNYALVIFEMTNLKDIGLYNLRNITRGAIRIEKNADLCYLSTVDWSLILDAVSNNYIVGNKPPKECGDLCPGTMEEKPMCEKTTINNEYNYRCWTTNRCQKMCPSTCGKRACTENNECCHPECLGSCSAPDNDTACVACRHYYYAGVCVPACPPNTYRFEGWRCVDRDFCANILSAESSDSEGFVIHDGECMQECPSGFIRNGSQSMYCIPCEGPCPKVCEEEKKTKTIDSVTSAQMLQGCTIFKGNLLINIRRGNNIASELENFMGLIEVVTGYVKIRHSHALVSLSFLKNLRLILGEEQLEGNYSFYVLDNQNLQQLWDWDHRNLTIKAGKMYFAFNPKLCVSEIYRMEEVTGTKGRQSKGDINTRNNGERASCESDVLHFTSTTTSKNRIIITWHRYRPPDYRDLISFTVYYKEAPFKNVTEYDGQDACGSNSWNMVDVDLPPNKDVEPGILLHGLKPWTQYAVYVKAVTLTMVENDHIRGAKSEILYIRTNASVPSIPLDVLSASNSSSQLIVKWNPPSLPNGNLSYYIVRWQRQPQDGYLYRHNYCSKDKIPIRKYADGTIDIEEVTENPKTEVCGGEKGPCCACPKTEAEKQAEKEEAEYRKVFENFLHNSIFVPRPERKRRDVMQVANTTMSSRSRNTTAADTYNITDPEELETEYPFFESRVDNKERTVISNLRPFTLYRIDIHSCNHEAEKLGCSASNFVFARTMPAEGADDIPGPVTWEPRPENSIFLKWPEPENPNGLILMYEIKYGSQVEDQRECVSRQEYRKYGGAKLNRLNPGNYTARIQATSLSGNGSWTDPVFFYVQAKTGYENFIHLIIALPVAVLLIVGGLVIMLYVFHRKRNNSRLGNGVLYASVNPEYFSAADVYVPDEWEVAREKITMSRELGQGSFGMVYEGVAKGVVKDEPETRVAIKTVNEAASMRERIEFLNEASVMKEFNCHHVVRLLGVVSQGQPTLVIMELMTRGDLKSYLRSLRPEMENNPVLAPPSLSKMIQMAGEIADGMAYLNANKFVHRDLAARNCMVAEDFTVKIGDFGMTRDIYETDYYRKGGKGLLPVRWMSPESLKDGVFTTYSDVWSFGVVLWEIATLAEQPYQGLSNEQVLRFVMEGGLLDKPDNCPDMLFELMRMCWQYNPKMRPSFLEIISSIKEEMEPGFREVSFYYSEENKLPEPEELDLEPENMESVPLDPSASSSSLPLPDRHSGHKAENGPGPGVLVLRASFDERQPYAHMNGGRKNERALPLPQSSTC
# Measurement Protocol: cell-based or functional assay
The star is where a group is joined. Palmitoyl = CCCCCCCCCCCCCCCC(=O)*

{"Binder": "Palmitoyl-HRKRNNSRLGNGVL-NH2 (SMILES CCCCCCCCCCCCCCCC(=O)N[C@@H](Cc1c[nH]cn1)C(=O)N[C@@H](CCCNC(=N)N)C(=O)N[C@@H](CCCCN)C(=O)N[C@@H](CCCNC(=N)N)C(=O)N[C@@H](CC(N)=O)C(=O)N[C@@H](CC(N)=O)C(=O)N[C@@H](CO)C(=O)N[C@@H](CCCNC(=N)N)C(=O)N[C@@H](CC(C)C)C(=O)NCC(=O)N[C@@H](CC(N)=O)C(=O)NCC(=O)N[C@H](C(=O)N[C@@H](CC(C)C)C(N)=O)C(C)C) [peptide 10 (Pal-HRKRNNSRLGNGVL-NH2)]", "Op": ">", "TGI (µM), MTT assay, MCF-7 cells": 5}
{"Binder": "Palmitoyl-KRNNSRLGNGVLY-NH2 (SMILES CCCCCCCCCCCCCCCC(=O)N[C@@H](CCCCN)C(=O)N[C@@H](CCCNC(=N)N)C(=O)N[C@@H](CC(N)=O)C(=O)N[C@@H](CC(N)=O)C(=O)N[C@@H](CO)C(=O)N[C@@H](CCCNC(=N)N)C(=O)N[C@@H](CC(C)C)C(=O)NCC(=O)N[C@@H](CC(N)=O)C(=O)NCC(=O)N[C@H](C(=O)N[C@@H](CC(C)C)C(=O)N[C@@H](Cc1ccc(O)cc1)C(N)=O)C(C)C) [peptide 27 (Pal-KRNNSRLGNGVLY-NH2)]", "Op": "=", "TGI (µM), MTT assay, MCF-7 cells": 2.5}
{"Binder": "Palmitoyl-HRKRNNSRLGNGV-NH2 (SMILES CCCCCCCCCCCCCCCC(=O)N[C@@H](Cc1c[nH]cn1)C(=O)N[C@@H](CCCNC(=N)N)C(=O)N[C@@H](CCCCN)C(=O)N[C@@H](CCCNC(=N)N)C(=O)N[C@@H](CC(N)=O)C(=O)N[C@@H](CC(N)=O)C(=O)N[C@@H](CO)C(=O)N[C@@H](CCCNC(=N)N)C(=O)N[C@@H](CC(C)C)C(=O)NCC(=O)N[C@@H](CC(N)=O)C(=O)NCC(=O)N[C@H](C(N)=O)C(C)C) [peptide 11 (Pal-HRKRNNSRLGNGV-NH2)]", "Op": ">", "TGI (µM), MTT assay, MCF-7 cells": 5}
{"Binder": "Palmitoyl-RKRNNSRLGNGVLYASVN-NH2 (SMILES CCCCCCCCCCCCCCCC(=O)N[C@@H](CCCNC(=N)N)C(=O)N[C@@H](CCCCN)C(=O)N[C@@H](CCCNC(=N)N)C(=O)N[C@@H](CC(N)=O)C(=O)N[C@@H](CC(N)=O)C(=O)N[C@@H](CO)C(=O)N[C@@H](CCCNC(=N)N)C(=O)N[C@@H](CC(C)C)C(=O)NCC(=O)N[C@@H](CC(N)=O)C(=O)NCC(=O)N[C@H](C(=O)N[C@@H](CC(C)C)C(=O)N[C@@H](Cc1ccc(O)cc1)C(=O)N[C@@H](C)C(=O)N[C@@H](CO)C(=O)N[C@H](C(=O)N[C@@H](CC(N)=O)C(N)=O)C(C)C)C(C)C) [peptide 12 (Pal-RKRNNSRLGNGVLYASVN-NH2)]", "Op": "=", "TGI (µM), MTT assay, MCF-7 cells": 2.7}
